# assay details: Plasma pharmacokinetics, multiple ascending dose cohorts
# Assay type: in vivo, human
# particulars: human, plasma, oral, 30 mg, tmax, 30 mg BID, day 7; median (range)
value type: Tmax at 7 day (h)

{"smiles": "Cc1cnc(-c2ccnc(C(C)(C)O)n2)cc1-n1c(C)cc(OCc2ncc(F)cc2F)c(Cl)c1=O", "value type": "Tmax at 7 day", "meas value": 2}

====

# assay details: Plasma pharmacokinetics, single ascending dose cohorts
# Type: in vivo, human
# particulars: human, plasma, oral

{"molecule": "Cc1cnc(-c2ccnc(C(C)(C)O)n2)cc1-n1c(C)cc(OCc2ncc(F)cc2F)c(Cl)c1=O [ATI-450]", "half-life": "8.5 to 11.2 h"}
